Test system: 324938-238-R-J1-PDC complex spheroids viability
Experiment: Anticancer human tumor 324938-238-R-J1-PDC patient-derived bladder carcinoma cell line growth inhibition [CLK]
Conditions: second compound 0.0316 µM; first compound 0.01 µM; hits give low values
Source text: A high-throughput screen of multi-cell type tumor spheroids was designed to identify active combinations of […] and targeted small molecules. Complex spheroids include a stromal component modeled by human endothelial cells (HUVEC) and fibroblasts modeled by human mesenchymal stem cells (MSCs). […] Compounds. […] If the clinical Cmax for an agent had not been determined, the highest concentration tested was 10 microM. […]
Metric: viability, T/C (%)
Kindly provide the numeric value in % only, without the unit symbol.

Use the examples below as a reference point.
- Compound: "CCN1CCN(Cc2ccc(Nc3ncc(F)c(-c4cc(F)c5nc(C)n(C(C)C)c5c4)n3)nc2)CC1 + CN1CCN(c2cc(C(=O)Nc3cc4cc(-c5cnn(C)c5)ccc4cn3)ccn2)CC1"
  Scale unit: "%"
  viability, T/C: 72.9
- Compound: "CCN1CCN(Cc2ccc(Nc3ncc(F)c(-c4cc(F)c5nc(C)n(C(C)C)c5c4)n3)nc2)CC1 + CNC(=O)c1ccc(Nc2nc(OC3CCCC3)c3c(-c4ccc5nc(C)oc5c4)c[nH]c3n2)c(OC)c1"
  Scale unit: "%"
  viability, T/C: 77.3

Let us move to another entry and its viability, T/C.
Query: Identify the measured viability, T/C of COc1c(OCCCN2CCOCC2)ccc2c3n(c(=NC(=O)c4cnc(N)nc4)nc12)CCN3 + CNC(=O)c1ccc(Nc2nc(OC3CCCC3)c3c(-c4ccc5nc(C)oc5c4)c[nH]c3n2)c(OC)c1 for 324938-238-R-J1-PDC complex spheroids viability.
Response: 66.1

====

Tested on: 324938-238-R-J1-PDC complex spheroids viability
Experiment: Anticancer human tumor 324938-238-R-J1-PDC cell line growth inhibition [CLK]; active = viability on the fitted dose curve at most 10% of control; inactive = the rest;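 also: viability read after seven days of drug exposure; 100% = DMSO vehicle control wells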
Conditions: second compound 0.316 µM; first compound 0.003 µM
Would you mind answering with one of these outcomes? active, inactive

Query: I'd appreciate the recorded outcome for C=CC(=O)Nc1cc(Nc2nccc(-c3cn(C)c4ccccc34)n2)c(OC)cc1N(C)CCN(C)C + CNC(=O)c1ccc(Nc2nc(OC3CCCC3)c3c(-c4ccc5nc(C)oc5c4)c[nH]c3n2)c(OC)c1 from this test.
Response: inactive

Query: I'd appreciate the recorded outcome for CC(C)CC(NC(=O)C(Cc1ccccc1)NC(=O)c1cnccn1)B(O)O (centres undefined) + CN1CCN(c2cc(C(=O)Nc3cc4cc(-c5cnn(C)c5)ccc4cn3)ccn2)CC1 from this test.
Response: active

Query: I'd appreciate the recorded outcome for C=CC(=O)Nc1cc(Nc2nccc(-c3cn(C)c4ccccc34)n2)c(OC)cc1N(C)CCN(C)C + CN1CCN(c2cc(C(=O)Nc3cc4cc(-c5cnn(C)c5)ccc4cn3)ccn2)CC1 from this test.
Response: inactive

Query: I'd appreciate the recorded outcome for CC(C)CC(NC(=O)C(Cc1ccccc1)NC(=O)c1cnccn1)B(O)O (centres undefined) + CNC(=O)c1ccc(Nc2nc(OC3CCCC3)c3c(-c4ccc5nc(C)oc5c4)c[nH]c3n2)c(OC)c1 from this test.
Response: active

====

Measured viability, T/C, listed per entry.
Test system: 324938-238-R-J1-PDC complex spheroids viability
Assay: Anticancer human tumor 324938-238-R-J1-PDC cell line growth inhibition [CLK];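 also: viability read after seven days of drug exposure; 100% = DMSO vehicle control wells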
Details: second compound 10 µM; first compound 0.0316 µM; hits give low values
Kindly provide the numeric value in % only, without the unit symbol.

Use the examples below as a reference point.
- Compound: "CC1COCCN1c1cc(C2(S(C)(=N)=O)CC2)nc(-c2ccnc3[nH]ccc23)n1 (centres undefined) + CNC(=O)c1ccc(Nc2nc(OC3CCCC3)c3c(-c4ccc5nc(C)oc5c4)c[nH]c3n2)c(OC)c1"
  Target or system: "324938-238-R-J1-PDC complex spheroids viability"
  Scale unit: "%"
  viability, T/C: 16.6
- Compound: "CCN1CCN(Cc2ccc(Nc3ncc(F)c(-c4cc(F)c5nc(C)n(C(C)C)c5c4)n3)nc2)CC1 + CNC(=O)c1ccc(Nc2nc(OC3CCCC3)c3c(-c4ccc5nc(C)oc5c4)c[nH]c3n2)c(OC)c1"
  Target or system: "324938-238-R-J1-PDC complex spheroids viability"
  Scale unit: "%"
  viability, T/C: 21.2
- Compound: "CC(=O)O[C@H]1C(=O)[C@@]2(C)[C@H]([C@H](OC(=O)c3ccccc3)[C@]3(O)C[C@H](OC(=O)[C@H](O)[C@@H](NC(=O)c4ccccc4)c4ccccc4)C(C)=C1C3(C)C)[C@]1(OC(C)=O)CO[C@@H]1C[C@@H]2O + CNC(=O)c1ccc(Nc2nc(OC3CCCC3)c3c(-c4ccc5nc(C)oc5c4)c[nH]c3n2)c(OC)c1"
  Target or system: "324938-238-R-J1-PDC complex spheroids viability"
  Scale unit: "%"
  viability, T/C: 16.9

Query: Identify the measured viability, T/C of CC(=O)O[C@H]1C(=O)[C@@]2(C)[C@H]([C@H](OC(=O)c3ccccc3)[C@]3(O)C[C@H](OC(=O)[C@H](O)[C@@H](NC(=O)c4ccccc4)c4ccccc4)C(C)=C1C3(C)C)[C@]1(OC(C)=O)CO[C@@H]1C[C@@H]2O + CN1CCN(c2cc(C(=O)Nc3cc4cc(-c5cnn(C)c5)ccc4cn3)ccn2)CC1 for 324938-238-R-J1-PDC complex spheroids viability.
Response: 0.13

Query: Identify the measured viability, T/C of CC1(C)CCC(CN2CCN(c3ccc(C(=O)NS(=O)(=O)c4ccc(NCC5CCOCC5)c([N+](=O)[O-])c4)c(Oc4cnc5[nH]ccc5c4)c3)CC2)=C(c2ccc(Cl)cc2)C1 + CNC(=O)c1ccc(Nc2nc(OC3CCCC3)c3c(-c4ccc5nc(C)oc5c4)c[nH]c3n2)c(OC)c1 for 324938-238-R-J1-PDC complex spheroids viability.
Response: 14.8

Query: Identify the measured viability, T/C of COc1ccc([C@@H](O)c2cc(-c3ncnc4cc(N5CCOCC5)ccc34)c(F)cc2Cl)nn1 + CNC(=O)c1ccc(Nc2nc(OC3CCCC3)c3c(-c4ccc5nc(C)oc5c4)c[nH]c3n2)c(OC)c1 for 324938-238-R-J1-PDC complex spheroids viability.
Response: 15.6

Query: Identify the measured viability, T/C of O=C(c1cc(Cc2n[nH]c(=O)c3ccccc23)ccc1F)N1CCN(C(=O)C2CC2)CC1 + CNC(=O)c1ccc(Nc2nc(OC3CCCC3)c3c(-c4ccc5nc(C)oc5c4)c[nH]c3n2)c(OC)c1 for 324938-238-R-J1-PDC complex spheroids viability.
Response: 16.2

Query: Identify the measured viability, T/C of CC1(C)CCC(CN2CCN(c3ccc(C(=O)NS(=O)(=O)c4ccc(NCC5CCOCC5)c([N+](=O)[O-])c4)c(Oc4cnc5[nH]ccc5c4)c3)CC2)=C(c2ccc(Cl)cc2)C1 + CN1CCN(c2cc(C(=O)Nc3cc4cc(-c5cnn(C)c5)ccc4cn3)ccn2)CC1 for 324938-238-R-J1-PDC complex spheroids viability.
Response: 0.12

Query: Identify the measured viability, T/C of CCCS(=O)(=O)Nc1ccc(F)c(C(=O)c2c[nH]c3ncc(-c4ccc(Cl)cc4)cc23)c1F + CN1CCN(c2cc(C(=O)Nc3cc4cc(-c5cnn(C)c5)ccc4cn3)ccn2)CC1 for 324938-238-R-J1-PDC complex spheroids viability.
Response: 0.56

Query: Identify the measured viability, T/C of CCc1c2c(nc3ccc(O)cc13)-c1cc3c(c(=O)n1C2)COC(=O)[C@]3(O)CC + CNC(=O)c1ccc(Nc2nc(OC3CCCC3)c3c(-c4ccc5nc(C)oc5c4)c[nH]c3n2)c(OC)c1 for 324938-238-R-J1-PDC complex spheroids viability.
Response: 8.22

Query: Identify the measured viability, T/C of CC1COCCN1c1cc(C2(S(C)(=N)=O)CC2)nc(-c2ccnc3[nH]ccc23)n1 (centres undefined) + CN1CCN(c2cc(C(=O)Nc3cc4cc(-c5cnn(C)c5)ccc4cn3)ccn2)CC1 for 324938-238-R-J1-PDC complex spheroids viability.
Response: 0.16

Query: Identify the measured viability, T/C of COc1ccc([C@@H](O)c2cc(-c3ncnc4cc(N5CCOCC5)ccc34)c(F)cc2Cl)nn1 + CN1CCN(c2cc(C(=O)Nc3cc4cc(-c5cnn(C)c5)ccc4cn3)ccn2)CC1 for 324938-238-R-J1-PDC complex spheroids viability.
Response: 0.06

Query: Identify the measured viability, T/C of O=c1[nH]cc(F)c(=O)[nH]1 + CNC(=O)c1ccc(Nc2nc(OC3CCCC3)c3c(-c4ccc5nc(C)oc5c4)c[nH]c3n2)c(OC)c1 for 324938-238-R-J1-PDC complex spheroids viability.
Response: 17.8

Query: Identify the measured viability, T/C of CC(Nc1ccc2c(c1)OCCn1cc(N3C(=O)OCC3C(F)F)nc1-2)C(N)=O (centres undefined) + CN1CCN(c2cc(C(=O)Nc3cc4cc(-c5cnn(C)c5)ccc4cn3)ccn2)CC1 for 324938-238-R-J1-PDC complex spheroids viability.
Response: 0.07

Query: Identify the measured viability, T/C of Nc1ccccc1NC(=O)c1ccc(CNC(=O)OCc2cccnc2)cc1 + CNC(=O)c1ccc(Nc2nc(OC3CCCC3)c3c(-c4ccc5nc(C)oc5c4)c[nH]c3n2)c(OC)c1 for 324938-238-R-J1-PDC complex spheroids viability.
Response: 15.2

Query: Identify the measured viability, T/C of O=c1[nH]cc(F)c(=O)[nH]1 + CN1CCN(c2cc(C(=O)Nc3cc4cc(-c5cnn(C)c5)ccc4cn3)ccn2)CC1 for 324938-238-R-J1-PDC complex spheroids viability.
Response: 0.07

Query: Identify the measured viability, T/C of COC1C=CCC(C)C(C)S(=O)(=O)NC(=O)c2ccc3c(c2)N(CC2CCC21)CC1(CCCc2cc(Cl)ccc21)CO3 (centres undefined) + CNC(=O)c1ccc(Nc2nc(OC3CCCC3)c3c(-c4ccc5nc(C)oc5c4)c[nH]c3n2)c(OC)c1 for 324938-238-R-J1-PDC complex spheroids viability.
Response: 14.7

Query: Identify the measured viability, T/C of Nc1ccccc1NC(=O)c1ccc(CNC(=O)OCc2cccnc2)cc1 + CN1CCN(c2cc(C(=O)Nc3cc4cc(-c5cnn(C)c5)ccc4cn3)ccn2)CC1 for 324938-238-R-J1-PDC complex spheroids viability.
Response: 0.06

Query: Identify the measured viability, T/C of CCCS(=O)(=O)Nc1ccc(F)c(C(=O)c2c[nH]c3ncc(-c4ccc(Cl)cc4)cc23)c1F + CNC(=O)c1ccc(Nc2nc(OC3CCCC3)c3c(-c4ccc5nc(C)oc5c4)c[nH]c3n2)c(OC)c1 for 324938-238-R-J1-PDC complex spheroids viability.
Response: 17.5
